Assign EC50 to each entry below.
# Tested on: HCV replicon
# protocol_description: Anti-HCV replicon assay (EC50, luciferase readout)
# Type: cell-based, hepatitis C virus
# experimental_parameters: Hepatitis C virus, 72 h; human hepatoma Huh-7 cell line harbouring a HCV replicon; 3 days incubation; luciferase signal; read-out: EC50

Some entries whose results are on file:
molecular_string: C[C@H](NC(=O)OC(C)(C)C)C(=O)Nc1ccc(-c2cnc3nc(N)nc(N4CCOCC4)c3n2)cc1
EC50: 1000 to 10000 nM

molecular_string: Nc1nc(N2CCOCC2)c2nc(-c3ccc(C(F)(F)F)cc3Cl)cnc2n1
EC50: 1000 to 10000 nM

Now for the compound whose EC50 we want.
Qu. Find the recorded EC50 belonging to COC(=O)Nc1ccc(-c2cnc3nc(N)nc(N4CCOCC4)c3n2)cc1 and report it.
Ans. < 300 nM

----------
# protocol_description: CC50 assay (CellTiter-Glo) in Huh-7 HCV replicon cells
# Type: cell-based, human
# experimental_parameters: human, 3 days incubation, 50% cytostatic concentration
assay_metric: CC50 at 3 days

molecular_string: Nc1nc(N2CCOCC2)c2nc(-c3ccn[nH]3)cnc2n1
test_value: > 20 µM
--
molecular_string: COc1ccccc1-c1cnc2nc(N)nc(N3CCOCC3)c2n1
test_value: > 20 µM
--
molecular_string: CNC(=O)c1ccc(-c2cnc3nc(N)nc(N4CCOCC4)c3n2)cc1
test_value: > 20 µM
--
molecular_string: COC(=O)Nc1ccc(-c2cnc3nc(N)nc(N4CCOCC4)c3n2)cc1
test_value: < 10 µM
--
molecular_string: Cc1cc(F)ccc1-c1cnc2nc(N)nc(N3CCOCC3)c2n1
test_value: 10 to 20 µM
--
molecular_string: Nc1nc(N2CCOCC2)c2nc(-c3cccc(OC(F)(F)F)c3)cnc2n1
test_value: < 10 µM
--
molecular_string: CCSc1nc(N)nc2ncc(-c3ccc(F)cc3)nc12
test_value: > 20 µM
--
molecular_string: Nc1nc(N2CCOCC2)c2nc(-c3ccc(NC(=O)[C@@H](N)CO)cc3)cnc2n1
test_value: > 20 µM

Each of the following entries comes with a recorded value; kindly state CC50 at 3 days for each.
1. C[C@H](NC(=O)OC(C)(C)C)C(=O)Nc1ccc(-c2cnc3nc(N)nc(N4CCOCC4)c3n2)cc1
2. Nc1nc(N2CCOCC2)c2nc(-c3ccc(Cl)s3)cnc2n1
3. Nc1nc(N2CCOCC2)c2nc(-c3ccccc3C(F)(F)F)cnc2n1
4. CCCCOc1nc(N)nc2ncc(-c3ccc(F)cc3)nc12

Ans.
1. < 10 µM
2. < 10 µM
3. < 10 µM
4. > 20 µM

Each of the following entries comes with a recorded value; kindly state CC50 at 3 days for each.
1. CCOc1nc(N)nc2ncc(-c3ccc(S(C)(=O)=O)cc3)nc12
2. Nc1nc(N2CCOCC2)c2nc(-c3ccc(CN4CCOCC4)cc3)cnc2n1
3. Nc1nc(N2CCOCC2)c2nc(-c3cccc(F)c3F)cnc2n1
4. Nc1nc(N2CCOCC2)c2nc(-c3cc4ccccc4s3)cnc2n1

Ans.
> 20 µM
> 20 µM
> 20 µM
< 10 µM

Each of the following entries comes with a recorded value; kindly state CC50 at 3 days for each.
1. CC(C)Oc1nc(N)nc2ncc(-c3ccc(F)cc3)nc12
2. CCCOc1nc(N)nc2ncc(-c3ccc(F)cc3)nc12
3. COc1nc(N)nc2ncc(-c3ccc(F)cc3)nc12
4. Nc1nc(N2CCOCC2)c2nc(-c3cccnc3)cnc2n1
5. Nc1nc(N2CCOCC2)c2nc(-c3ccccc3Cl)cnc2n1
6. CCOc1nc(N)nc2ncc(-c3ccc(OC)c(F)c3)nc12

Ans.
1. > 20 µM
2. > 20 µM
3. > 20 µM
4. 10 to 20 µM
5. < 10 µM
6. > 20 µM

Each of the following entries comes with a recorded value; kindly state CC50 at 3 days for each.
1. Nc1nc(N2CCOCC2)c2nc(-c3cccc(Cl)c3)cnc2n1
2. C[C@H](N)C(=O)Nc1ccc(-c2cnc3nc(N)nc(N4CCOCC4)c3n2)cc1

Ans.
1. > 20 µM
2. > 20 µM
